Tested on: T-47D breast
Assay: NCI-60 one-dose screen, 48 h (100 = growth as untreated, 0 = no growth, -100 = all killed)
Settings: 10 µM unless noted
Compounds without any hit were thinned out: in the full panel of roughly 83,000, 20% have a hit.

| compound | growth, % |
| --- | --- |
| Cc1ccc(OCCOCCOCCOCCOCCOc2ccc(C)n(O)c2=S)c(=S)n1O | 15.1 |
| COc1ccc(OC)c(Nc2nnc(-c3cc(OC)c(OC)c(OC)c3)o2)c1 | 82.2 |
| CCOC(=O)C1=C(c2ccccc2)N=C2N(c3ccccc3)N=C(C(C)=O)N2C1c1ccc(F)cc1 (stereo not given) | 98.8 |
| CCN(CC)CCCC(Cc1ccccc1)Nc1c2ccc(Cl)cc2nc2ccc(OC)cc12 (stereo not given) | -6.99 |
| COc1cc(/C=C/C(=O)c2cc(OC)c(OC)c(OC)c2)ccc1Oc1nc2c(c(=O)n(C)c(=O)n2C)n1C | -16.1 |

* * *

Test system: OVCAR-5 ovarian
Assay: NCI-60 one-dose screen, 48 h
Conditions: 10 µM unless noted
Compounds without any hit were thinned out: in the full panel of roughly 83,000, 20% have a hit. Calls of active or inactive are those of the source. The calls were made as follows: active = growth percent below 10; inactive = the rest.
Outcomes: label 1 (active), label 0 (inactive)

| compound | label |
| --- | --- |
| CCOC(=O)CC1CSC(N/N=C/c2ccc(F)c(Br)c2)=N1 (configuration not stated) | label 0 |
| O=C(Nc1ccc(Oc2cccc(Cl)c2)c(Cl)c1)c1cccnn1 | label 0 |
| CC1=C2CC/C(C)=C/CC[C@]3(C)O[C@H]3CC/C(C)=C/[C@H]2OC1 | label 0 |
| CCOC(=O)c1c(NC(=O)c2ccccc2)sc2c3c(ccc12)OCN(C)C3 | label 1 |
| C=C(C)[C@@H]1CC[C@]2(C(=O)N3CCN(C)CC3)CC[C@]3(C)[C@H](CC[C@@H]4[C@@](C)(CCC(=O)O)[C@H](C(=C)C)CC[C@]43C)[C@@H]12 | label 0 |
| CCN(CC)CCOc1ccc(Nc2ncc3cc(-c4c(Cl)cccc4Cl)c(=O)n(CCOC)c3n2)cc1 | label 1 |
| COc1cc(/C=C2\C(=O)N(CCCOc3cc(O)c4c(=O)cc(-c5ccccc5)oc4c3)c3ccccc32)cc(OC)c1O | label 0 |
| COc1ccc(NC(=O)c2ccc(Nc3ncnc4c3cnn4-c3cccc(F)c3)cc2)cc1 | label 0 |
| CC(C)Cc1nc(Nc2ccccc2)[nH]c(=O)c1C#N | label 0 |
| CCN(CC)CCOc1ccc2c(-c3ccccc3)c(-c3ccc(OC)cc3)c(=O)oc2c1 | label 0 |
| O=C(O)c1cn(C2CC2)c2cc(N3CCN(C(=O)N4CCOCC4)CC3)c(F)cc2c1=O | label 0 |
| CS(=O)(=O)Nc1cc(-c2ccc3ncnc(Nc4ccc5c(cnn5Cc5ccncc5)c4)c3c2)cnc1Cl | label 0 |
| CCCCO[C@@H]1C=C2[C@H]3CC(C)(C)C(=O)C[C@]3(C(=O)O[C@@H]3O[C@H](CO[C@@H]4O[C@H](CO)[C@@H](OC5OC(C)C(O)C(O)C5O)[C@H](O)[C@H]4O)[C@@H](O)[C@H](O)[C@H]3O)CC[C@@]2(C)[C@]2(C)CC[C@H]3C(C)(C)C(=O)CC[C@]3(C)[C@@H]12 (some centres not stated) | label 0 |
| COC12C=C/C(=C(/C(=O)OCCSc3ccnn3C)C(=O)CCCCCCCCC3(OC)C=C/C(=C(/C(=O)OCCSc4ccnn4C)C(=O)CCCCCCCC1)O3)O2 | label 0 |
| C=C(C)[C@@H]1CC[C@]2(CO)CC[C@]3(C)[C@H](CC[C@@H]4[C@@](C)(CCCN)[C@H](C(=C)C)CC[C@]43C)[C@@H]12 | label 1 |
| N#Cc1ccccc1-c1ccc(CN2C(=O)S/C(=C\c3ccc(Br)cc3)C2=O)cc1 | label 0 |
| Oc1ccc(-c2nc3ccc4[nH]ncc4c3c3c2CCCC3)c(F)c1 | label 0 |
